Some molecules, each annotated with its measured melting point.
Measurement Label: melting point

molecule="O=C(CC1CC2CCC1C2)NCC1CCN(c2ncccn2)CC1 (stereo not given)" recorded_value="121 to 126 °C"
molecule="CCOC(=O)c1c2ccc(Cl)cc2c(-c2ccccc2)n1CCCC(C)C1OCCO1 (stereo not given)" recorded_value="100 to 101 °C"
molecule=Cc1c(OCC(=O)O)ccc2c(=O)c3c(F)cccc3oc12 recorded_value="259 to 261 °C"
molecule="COC(=O)C=CC(C)Oc1ccc(OCc2ccccc2)cc1 (stereo not given)" recorded_value="80 to 89 °C"
molecule=CS(=O)(=O)c1ccc(C[C@@H](NC(=O)OCc2ccccc2)[C@H](O)C(=O)O)cc1 recorded_value="168 to 172 °C"
molecule=COc1cc(N)c(Cl)cc1C(=O)NCC1CCN(CCCCCNC(=O)c2cccc(Cl)c2)CC1 recorded_value="139 to 142 °C"
molecule="O=c1oc2c(c(O)c1C(c1ccccc1)C1CC1)CCCCCC2CC1CCCOC1 (stereo not given)" recorded_value="89 to 95 °C"
molecule=N#CN(c1ccccc1)c1nc(N(C#N)c2ccccc2)nc(N(C#N)c2ccccc2)n1 recorded_value="209 to 215 °C"
molecule=Cc1ccc(Cl)cc1N1CCCN(C2CCC2)C1=S recorded_value="152 to 154 °C"
molecule="Cc1cc(C(=O)O)ccc1C(N)C(=O)O (stereo not given)" recorded_value="> 250 °C"
molecule=CC(C)C(=O)O[C@H]1[C@H](C)OC(=O)[C@@H](NC(=O)OC(C)(C)C)COC(=O)[C@@H]1Cc1ccccc1 recorded_value="143 to 145 °C"
molecule=Oc1ccc(OCc2ccccc2)cc1F recorded_value="67 °C"
molecule=COc1cc(OCc2ccccn2)ccc1/C=C/c1cc(/C=C/c2cccc3ncccc23)[nH]n1 recorded_value="107 to 120 °C"
molecule=COc1ccc(C(=O)Nc2ccc(F)c(F)c2)cc1NCc1cccnc1 recorded_value="148 to 149 °C"
molecule=COCn1nnc(NC(=O)C2c3ccccc3Oc3ccccc32)n1 recorded_value="221 to 222 °C"
molecule=O=S1(=O)c2ccccc2Oc2cc(F)ccc21 recorded_value="174 to 176 °C"
molecule=COc1cc2c(N)nc(Cl)nc2c(OC)c1OC recorded_value="244 to 245 °C"
molecule=O=C1Cc2cc(C(=O)N3CCN(Cc4ccccc4)CC3)ccc2N1 recorded_value="151 to 153 °C"
molecule=Cc1cccc(-c2nscc2C(=O)O)c1 recorded_value="144 to 146 °C"
molecule=COC(=O)[C@@H]1CC(=O)N(c2ccc(O)cc2)C1 recorded_value="123 °C"
molecule="CC(C(=O)N(C)C)n1ccc(-c2cccc([N+](=O)[O-])c2)n1 (stereo not given)" recorded_value="117 to 119 °C"
molecule=COc1ccc2cc(C(=O)O)oc(=O)c2c1OC recorded_value="262 to 263 °C"
molecule=O=C(CCc1oc(-n2ccnc2)nc1-c1ccc(Cl)cc1)NCCCl recorded_value="130 to 131 °C"
molecule=CCCCCCCCCCCCc1c([N+](=O)[O-])ncn1C recorded_value="56 to 59 °C"
molecule=CC(C)c1ccc(N2Cc3ccc([N+](=O)[O-])cc3C2=O)cc1 recorded_value="225 to 227 °C"
molecule=Cc1ccc(C)c(SCCCCCCCC(=O)O)c1 recorded_value="60 to 63 °C"
molecule=CCCc1c(CCC(=O)O)cnn1Cc1ccc(OCc2nc(-c3ccccc3)oc2C)cc1 recorded_value="158 to 159 °C"
molecule=N#CC1(c2ccc(OCc3ccc(F)cc3)c(OC3CCCC3)c2)CCC(=O)CC1 recorded_value="145 to 146 °C"
molecule=CS(=O)(=O)c1ccc(-c2cnn(Cc3ccccc3)c(=O)c2Cl)cc1 recorded_value="166 to 167 °C"
molecule=O=[N+]([O-])c1cccnc1Nc1ccc(O)cc1 recorded_value="143 to 144 °C"
molecule=CCN(CC)C(=O)CP(=S)(c1ccccc1)c1ccccc1 recorded_value="108 to 110 °C"
molecule=N#CC(=Cc1ccc(F)cc1[N+](=O)[O-])C(N)=O recorded_value="278 to 279 °C"
molecule=Cc1cc(S(=O)(=O)Nc2cc(F)c(Oc3cnc4ccccc4c3)c(Cl)c2)c(Cl)cc1Cl recorded_value="187 °C"
molecule=CCCCCCCCCCCCCCOc1ccc(NC(=O)Nc2cccc(CO)c2)cc1 recorded_value="150 to 158 °C"
molecule=COc1ccc(C(=O)Nc2ccccc2)cc1NS(=O)(=O)c1ccc(F)cc1F recorded_value="198 to 200 °C"
molecule="O=S(=O)(c1ccc(F)cc1)N1CCCC1c1ccccc1F (racemic)" recorded_value="108 °C"
molecule="CC(C)(C)c1cc2c(c(C(C)(C)C)c1)OC(=O)C2c1ccc(O)cc1 (stereo not given)" recorded_value="187 to 190 °C"
molecule=N#Cc1cccnc1N1CCN(CC(=O)Nc2ccccc2C(F)(F)F)CC1 recorded_value="143 to 145 °C"
molecule="CC(N=c1cccccc1NC(C)c1ccccc1)c1ccccc1 (stereo not given)" recorded_value="74 °C"
molecule="Cc1c(C)c2c(c(C)c1NC(=O)CC(C)(C)C)C(c1ccc(CC(C)C)cc1)CO2 (stereo not given)" recorded_value="153 to 154 °C"
